B1: library; numbered along this chain (parent)
chain: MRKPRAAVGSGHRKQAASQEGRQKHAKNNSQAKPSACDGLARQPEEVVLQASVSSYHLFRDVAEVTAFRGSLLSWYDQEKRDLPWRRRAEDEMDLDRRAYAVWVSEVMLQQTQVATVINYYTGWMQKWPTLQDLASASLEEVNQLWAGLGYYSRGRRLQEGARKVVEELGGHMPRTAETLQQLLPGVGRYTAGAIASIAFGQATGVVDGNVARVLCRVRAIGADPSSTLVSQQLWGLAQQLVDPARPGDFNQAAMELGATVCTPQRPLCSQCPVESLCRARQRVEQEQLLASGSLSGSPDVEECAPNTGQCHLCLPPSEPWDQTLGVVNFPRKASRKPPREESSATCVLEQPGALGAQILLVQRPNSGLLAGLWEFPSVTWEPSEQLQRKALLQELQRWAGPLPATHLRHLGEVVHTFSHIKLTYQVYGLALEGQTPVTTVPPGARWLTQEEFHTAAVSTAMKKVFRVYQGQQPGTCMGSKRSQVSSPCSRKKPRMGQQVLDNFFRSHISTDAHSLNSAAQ

Variants of: B1
assay.remarks: 8OG:A repair function score (normalized; synonymous = 0, nonsense = -1) (normalized log-likelihood score); higher = more repair activity (WT-like);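 note: cells sorted at 72 h after reporter transfection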
assay.setup: with 8OG:A DNA repair reporter (GFP) in HEK-293 MUTYH KO cells
The following variants are listed with their measured 8OG:A repair function score values.
measurement.name: 8OG:A repair function score

[
  {
    "mutant": "L277I",
    "measurement.name": "8OG:A repair function score",
    "measured.number": -0.036
  },
  {
    "mutant": "P247D",
    "measurement.name": "8OG:A repair function score",
    "measured.number": -1.03
  },
  {
    "mutant": "V48M",
    "measurement.name": "8OG:A repair function score",
    "measured.number": -0.0648
  },
  {
    "mutant": "L369T",
    "measurement.name": "8OG:A repair function score",
    "measured.number": 0.0329
  },
  {
    "mutant": "W374I",
    "measurement.name": "8OG:A repair function score",
    "measured.number": -0.729
  },
  {
    "mutant": "G479H",
    "measurement.name": "8OG:A repair function score",
    "measured.number": 0.0228
  },
  {
    "mutant": "S344C",
    "measurement.name": "8OG:A repair function score",
    "measured.number": 0.0475
  },
  {
    "mutant": "E287T",
    "measurement.name": "8OG:A repair function score",
    "measured.number": -0.00299
  },
  {
    "mutant": "S318N",
    "measurement.name": "8OG:A repair function score",
    "measured.number": -0.0704
  },
  {
    "mutant": "A192W",
    "measurement.name": "8OG:A repair function score",
    "measured.number": -1.16
  },
  {
    "mutant": "F504R",
    "measurement.name": "8OG:A repair function score",
    "measured.number": -0.00117
  },
  {
    "mutant": "V414S",
    "measurement.name": "8OG:A repair function score",
    "measured.number": -0.294
  }
]
